Test: qHTS for Inhibitors of the Functional Ribonucleoprotein Complex (vRNP) of Lassa (LASV) Arenavirus: Viability assay - alamar blue signal for LASV Primary Screen (AID 1347083); further: nearly all actives have a fitted effect of over 80% in size
Details: cell viability, alamar blue fluorescence (LASV minigenome counter-screen); series mostly up to 57.5 µM
Results filed as inconclusive are left out. Active and inactive are the calls of the source. The call rests on the fitted dose curve; tested in HEK293 reporter line.
experimentalEndpoint: outcome

COC(=O)C1=CO[C@@H](OC2OC(CO)C(O)C(O)C2O)[C@@H]2C(CO)=CC[C@H]12 (stereo partly drawn)    inactive
Cc1cc(OCCCS(C)(=O)=O)cc(C)c1-c1cccc(COc2ccc3c(c2)OC[C@H]3CC(=O)O)c1    inactive
COc1cc([C@H]2Oc3cc([C@H]4Oc5cc(O)cc(O)c5C(=O)[C@H]4O)ccc3O[C@H]2CO)ccc1O    inactive
